measurement protocol: MTT assay, cytotoxicity
Assay type: cell-based, human
conditions: human, HaCaT keratinocytes, 24 h incubation at 37 °C, 0.5–500 μg/mL, six replicates per concentration, repeated at least twice
Where a SMILES comes first, the peptide text is derived from it. The star is where a group is joined. βGlcNAc = CC(=O)N[C@@H]1[C@@H](O)[C@H](O)[C@@H](CO)O[C@H]1*; Stearoyl = CCCCCCCCCCCCCCCCCC(=O)*; Palmitoyl = CCCCCCCCCCCCCCCC(=O)*; Myristoyl = CCCCCCCCCCCCCC(=O)*
Recorded IC50 at 24 h by entry
Give a bare numeral; the unit µg/mL is implied.

Consider the compound CCCCCCCCCCCCCCCC(=O)N[C@@H](CCCNC(=N)N)C(=O)N[C@@H](CO)C(=O)N[C@@H](CCCNC(=N)N)C(N)=O [Peptide 5, C16-RSR-NH2] (Palmitoyl-Arg-Ser-Arg-NH2) and give its measured IC50 at 24 h. 5.72

Consider the compound CCCCCCCCCCCCCC(=O)N[C@@H](CCCNC(=N)N)C(=O)N[C@@H](CO[C@@H]1O[C@H](CO)[C@@H](O)[C@H](O)[C@H]1NC(C)=O)C(=O)N[C@@H](CCCNC(=N)N)C(N)=O [Peptide 11, C14-RS(GlcNAc)R-NH2] (Myristoyl-Arg-Ser(βGlcNAc)-Arg-NH2) and give its measured IC50 at 24 h. 25.2

Consider the compound CCCCCCCCCCCCCCCCCC(=O)N[C@@H](CCCNC(=N)N)C(=O)N[C@@H](CO[C@@H]1O[C@H](CO)[C@@H](O)[C@H](O)[C@H]1NC(C)=O)C(=O)N[C@@H](CCCNC(=N)N)C(N)=O [Peptide 17, C18-RS(GlcNAc)R-NH2] (Stearoyl-Arg-Ser(βGlcNAc)-Arg-NH2) and give its measured IC50 at 24 h. 9.45

Consider the compound CCCCCCCCCCCCCCCCCC(=O)N[C@@H](CCCNC(=N)N)C(=O)N[C@@H](CO)C(=O)N[C@@H](CCCNC(=N)N)C(N)=O [Peptide 8, C18-RSR-NH2] (Stearoyl-Arg-Ser-Arg-NH2) and give its measured IC50 at 24 h. 7.97

Consider the compound CCCCCCCCCCCCCCCCCC(=O)N[C@@H](CCCNC(=N)N)C(=O)N[C@@H](CCCNC(=N)N)C(=O)N[C@@H](CO)C(N)=O [Peptide 9, C18-RRS-NH2] (Stearoyl-Arg-Arg-Ser-NH2) and give its measured IC50 at 24 h. 10.7

Consider the compound CCCCCCCCCCCCCCCC(=O)N[C@@H](CCCNC(=N)N)C(=O)N[C@@H](CCCNC(=N)N)C(=O)N[C@@H](CO[C@@H]1O[C@H](CO)[C@@H](O)[C@H](O)[C@H]1NC(C)=O)C(N)=O [Peptide 15, C16-RRS(GlcNAc)-NH2] (Palmitoyl-Arg-Arg-Ser(βGlcNAc)-NH2) and give its measured IC50 at 24 h. 5.16

Consider the compound CCCCCCCCCCCCCCCC(=O)N[C@@H](CO)C(=O)N[C@@H](CCCNC(=N)N)C(=O)N[C@@H](CCCNC(=N)N)C(N)=O [Peptide 4, C16-SRR-NH2] (Palmitoyl-Ser-Arg-Arg-NH2) and give its measured IC50 at 24 h. 4.02
